# Experimental target: human sphingosine-1-phosphate receptor 1 (S1P1) (Homo sapiens)
# Sequence (P21453 whole entry): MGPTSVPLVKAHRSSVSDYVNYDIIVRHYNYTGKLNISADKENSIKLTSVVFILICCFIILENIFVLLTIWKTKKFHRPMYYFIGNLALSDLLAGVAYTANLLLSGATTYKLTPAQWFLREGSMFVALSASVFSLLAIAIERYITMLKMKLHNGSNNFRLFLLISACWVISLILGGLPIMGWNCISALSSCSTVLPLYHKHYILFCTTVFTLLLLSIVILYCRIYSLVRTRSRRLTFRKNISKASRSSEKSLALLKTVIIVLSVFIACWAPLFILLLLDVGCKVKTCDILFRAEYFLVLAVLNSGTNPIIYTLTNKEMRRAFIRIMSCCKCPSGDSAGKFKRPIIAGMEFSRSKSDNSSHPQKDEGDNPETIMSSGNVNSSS
# Sequence (P32121 whole entry partner): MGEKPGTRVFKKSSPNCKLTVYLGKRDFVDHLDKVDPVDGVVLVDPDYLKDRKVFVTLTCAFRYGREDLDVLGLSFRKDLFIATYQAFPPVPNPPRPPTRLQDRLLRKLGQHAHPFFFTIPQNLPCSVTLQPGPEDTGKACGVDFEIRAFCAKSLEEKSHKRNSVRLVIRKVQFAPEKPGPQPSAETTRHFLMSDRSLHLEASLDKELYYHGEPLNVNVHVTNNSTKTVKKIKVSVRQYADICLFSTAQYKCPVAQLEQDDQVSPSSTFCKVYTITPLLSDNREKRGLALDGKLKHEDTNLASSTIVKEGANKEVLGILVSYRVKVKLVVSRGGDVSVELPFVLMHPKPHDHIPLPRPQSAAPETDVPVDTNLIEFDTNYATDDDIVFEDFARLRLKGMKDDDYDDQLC
# Assay text: β-Arrestin2 recruitment assay (PathHunter), S1P1 CHO-K1 cells
# Assay type: cell-based
# Assay setup: CHO-K1; efficacy normalized to maximum efficacy of fingolimod; read-out: hS1P1 B-arrestin2 SPAN
# Description: Stable clonal Chinese hamster ovary K1 (CHO-K1) cells co-expressing EA-β-arrestin2 and the human sphingosine-1-phosphate receptor 1 (NM_001400, S1P1) with a C-terminal Prolink™ tag were purchased from DiscoverX corporation (Cat #: 93-0207C2). […] Agonist-promoted β-arrestin2 recruitment to the sphingosine-1-phosphate 1 receptor was determined using the β-arrestin PathHunter® Detection kit (DiscoverX Corporation, Cat #: 93-0001). […]
Provide the reported Emax of each item.

The reported value for CC(C)n1ccc2cc(-c3noc(-c4ccccc4C(F)(F)F)n3)ccc21 in terms of Emax is < 75%

The reported value for CC(C)n1nnc2cc(-c3nc(-c4sccc4Cl)co3)ccc21 in terms of Emax is > 75%

The reported value for CC(C)Nc1ccc(-c2nnc(-c3ccc4c(c3)ncn4C)o2)cc1C#N in terms of Emax is > 75%

The reported value for CCC1(CC)CC(=O)c2cc(-c3nc(-c4cccnc4C(F)(F)F)no3)ccc2O1 in terms of Emax is > 75%

The reported value for CCC1(CC)CC(=O)c2cc(-c3nc(-c4ccco4)no3)ccc2O1 in terms of Emax is > 75%

The reported value for COc1cccc(-c2nc(-c3ccc4c(ccn4C(C)C)c3)no2)c1 in terms of Emax is < 75%

The reported value for Cc1ccccc1-c1cc(-c2ccc3c(c2)nnn3C(C)C)c[nH]1 in terms of Emax is < 75%

The reported value for CCC1(CC)CC(=O)c2cc(-c3nc(-c4ncccn4)no3)ccc2O1 in terms of Emax is < 75%

The reported value for Cc1ccncc1-c1nc(-c2ccc3c(c2)nnn3CC(C)(C)CO)no1 in terms of Emax is < 75%

The reported value for CC(C)Nc1ccc(-c2ncc(-c3ccc4[nH]c(=O)[nH]c4c3)cn2)cc1C#N in terms of Emax is < 75%

The reported value for Cc1ccc2nc(-c3ccc4c(c3)nnn4CC(C)C)oc2c1 in terms of Emax is < 75%

The reported value for Cn1cnc2ccc(-c3nnc(-c4ccc(NC(C)(C)CO)c(C#N)c4)o3)cc21 in terms of Emax is < 75%

The reported value for Cc1ccccc1-c1noc(-c2cnc3c(c2)nnn3C(C)C)n1 in terms of Emax is > 75%

The reported value for CCC1(CC)CC(=O)c2cc(-c3nc(-c4ccnc(N)c4)no3)ccc2O1 in terms of Emax is > 75%

The reported value for COc1ccccc1-c1noc(-c2ccc3c(c2)NC(=O)CN3)n1 in terms of Emax is < 75%

The reported value for CCC1(CC)CC(=O)c2cc(-c3nc(-c4cccnc4C)no3)ccc2O1 in terms of Emax is > 75%

The reported value for COc1cc(NC(C)=O)ccc1-c1nc(-c2ccncc2)no1 in terms of Emax is < 75%

The reported value for CCC1(CC)CC(=O)c2cc(-c3nc(-c4cnc[nH]4)no3)ccc2O1 in terms of Emax is > 75%

The reported value for Cc1occc1-c1noc(-c2ccc3c(c2)nnn3C(C)C)n1 in terms of Emax is > 75%

The reported value for Cc1ccccc1-c1csc(-c2cnc3c(ccn3C(C)C)c2)n1 in terms of Emax is < 75%

The reported value for CC(C)Nc1ccc(-c2nc(-c3ccc4c(c3)C(=O)NCC4)no2)cc1C#N in terms of Emax is < 75%

The reported value for Cc1cnccc1-c1noc(-c2ccc3c(c2)nnn3CC(C)(C)O)n1 in terms of Emax is > 75%

The reported value for CCC1(CC)CC(=O)c2cc(-c3nc(-c4cnccc4C(F)(F)F)no3)ccc2O1 in terms of Emax is > 75%

The reported value for CCC1(CC)CC(=O)c2cc(-c3nc(-c4ccc5[nH]c(=O)oc5c4)no3)ccc2O1 in terms of Emax is > 75%

The reported value for CCC1(CC)CC(=O)c2cc(-c3nc(-c4cncc(F)c4)no3)ccc2O1 in terms of Emax is < 75%

The reported value for CC(C)(CO)Cn1nnc2cc(-c3noc(-c4ccccc4Cl)n3)ccc21 in terms of Emax is > 75%

The reported value for CCC1(CC)CC(=O)c2cc(-c3nc(-c4cncc(C)c4)no3)ccc2O1 in terms of Emax is < 75%

The reported value for CCC1(CC)CC(=O)c2cc(-c3nc(-c4ccc[nH]4)no3)ccc2O1 in terms of Emax is < 75%

The reported value for O=C1CC(CO)(CO)Oc2ccc(-c3nc(-c4cccnc4)no3)cc21 in terms of Emax is < 75%

The reported value for CCC1(CC)CC(=O)c2cc(-c3nc(-c4ccc5c(c4)CCC(=O)N5)no3)ccc2O1 in terms of Emax is > 75%

The reported value for CC(C)Nc1ccc(-c2nnc(-c3ccc4c(c3)C(=O)NCC4)o2)cc1C#N in terms of Emax is < 75%

The reported value for COc1ccccc1-c1nc(-c2ccc3c(ccn3C(C)C)c2)no1 in terms of Emax is > 75%

The reported value for COc1ccc(-c2nc(-c3ccc4c(c3)nnn4CC(C)(C)CO)no2)c(C)c1 in terms of Emax is > 75%

The reported value for CC(C)n1ccc2cc(-c3noc(-c4ccccc4F)n3)ccc21 in terms of Emax is > 75%

The reported value for COc1ccccc1-c1csc(-c2ccc3c(ccn3C(C)C)n2)n1 in terms of Emax is < 75%

The values you see were collected from patent US20230114241A1.
